- Tested on: Fusarium oxysporum
- ASSAY NOTES: Antimicrobial activity against Fusarium oxysporum at 3 uM after 72 hrs by microtiter assay
- Format: functional
REPORTED ENDPOINT: inhibition at 3 µM (%)
Reply numerically in %, unit not repeated.

Query: Give the reported inhibition at 3 µM for `CO/C=C(/C(=O)OC)c1ccccc1Oc1cc(Oc2ccccc2C#N)ncn1` (system: Fusarium oxysporum).
Response: 7.1

Query: Another: `C/C=C1\NC(=O)[C@H](Cc2ccccc2)NC(=O)[C@@H](C(C)C)NC(=O)[C@@H]([C@@H](C)CC)NC(=O)[C@H](NC(=O)[C@H](NC(=O)[C@H](CCCNCc2cccs2)NC(=O)[C@H]2CCCN2C(=O)[C@H](NC(=O)[C@@H](NC(=O)[C@@H](NC(=O)[C@H](NC(=O)CCCC(C)C)C(C)C)[C@@H](C)O)C(C)C)C(C)C)[C@@H](C)CC)[C@@H](C)OC(=O)[C@H](C(C)C)NC1=O`
Response: 0

Query: Another: `C/C=C1\NC(=O)[C@H](Cc2ccccc2)NC(=O)[C@@H](C(C)C)NC(=O)[C@@H]([C@@H](C)CC)NC(=O)[C@H](NC(=O)[C@H](NC(=O)[C@H](CCCN)NC(=O)[C@H]2CCCN2C(=O)[C@H](NC(=O)[C@@H](NC(=O)[C@@H](NC(=O)[C@H](NC(=O)CCCC(C)C)C(C)C)C(C)=O)C(C)C)C(C)C)[C@@H](C)CC)[C@@H](C)OC(=O)[C@H](C(C)C)NC1=O`
Response: 0

Query: Another: `C/C=C1\NC(=O)[C@H](Cc2ccccc2)NC(=O)[C@@H](C(C)C)NC(=O)[C@@H]([C@@H](C)CC)NC(=O)[C@H](NC(=O)[C@H](NC(=O)[C@H](CCCNCc2ccc(F)cc2)NC(=O)[C@H]2CCCN2C(=O)[C@H](NC(=O)[C@@H](NC(=O)[C@@H](NC(=O)[C@H](NC(=O)CCCC(C)C)C(C)C)[C@@H](C)O)C(C)C)C(C)C)[C@@H](C)CC)[C@@H](C)OC(=O)[C@H](C(C)C)NC1=O`
Response: 0
